Values of IC50 for Receptor-type tyrosine-protein phosphatase beta (Homo sapiens, UniProt P23467), collected from a number of published sources:
label 1 if IC50 is below 200 nM. label 0 if not; exact matches included in label 0.

I wonder whether COC(=O)C(Cc1ccc(NS(=O)(=O)O)cc1)(Cc1ccc(S(N)(=O)=O)cc1)C(=O)OC has IC50 below 200 nM. Can you tell?
label 0

I wonder whether COC(=O)C(Cc1ccc(NS(=O)(=O)O)cc1)(Cc1ccc(OC)cc1)C(=O)OC has IC50 below 200 nM. Can you tell?
label 0

I wonder whether O=P(O)(O)C(F)(F)c1ccc(COCCOCc2ccc(C(F)(F)P(=O)(O)O)cc2)cc1 has IC50 below 200 nM. Can you tell?
label 0

I wonder whether Cc1noc(C(Cc2ccc(NS(=O)(=O)O)cc2)(Cc2ccc(NS(=O)(=O)O)cc2)c2nc(C)no2)n1 has IC50 below 200 nM. Can you tell?
label 1

I wonder whether COC(=O)C(CCCS(=O)(=O)c1ccccc1)(Cc1ccc(NS(=O)(=O)O)cc1)C(=O)OC has IC50 below 200 nM. Can you tell?
label 1

I wonder whether COC(=O)C(Cc1ccc(NS(=O)(=O)O)cc1)(Cc1cccc(S(N)(=O)=O)c1)C(=O)OC has IC50 below 200 nM. Can you tell?
label 0

I wonder whether CCCOc1c2cccc1Cc1cc(C(P(=O)(O)O)P(=O)(O)O)cc(c1O)Cc1cccc(c1OCCC)Cc1cccc(c1O)C2 has IC50 below 200 nM. Can you tell?
label 0

I wonder whether COC(=O)C(Cc1ccc(NS(=O)(=O)O)cc1)(Cc1ccc(NS(=O)(=O)O)cc1)C(=O)OC has IC50 below 200 nM. Can you tell?
label 1

I wonder whether COC(=O)C(CCCc1ccccc1)(Cc1ccc(NS(=O)(=O)O)cc1)C(=O)OC has IC50 below 200 nM. Can you tell?
label 1
